B1: TRIM43 (parent)
chain: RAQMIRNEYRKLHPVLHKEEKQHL

- Variants of: B1
- procedure details: protein stability index of a GFP-peptide fusion (GPS, HEK-293T) (PSI 1-6); higher = more stable;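 note: lentivirally expressed fusions sorted by FACS into six bins by GFP to DsRed ratio, PSI derived from sequencing read proportions per bin multiplied by bin number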
- experimental conditions: c terminus: a fixed tail appended
metric name: protein stability index
The response must contain the number and no unit.

Examples with answers:
sequence variant	protein stability index
H17L	2.93
R10L	3.38
M4G	3.66
R1P	3.38
P14K	2.7
Q22Y	2.71
E19V	2.25
H23L	3.18

Report measured protein stability index; entry is `M4C`
3.23

Return value of protein stability index for input `V15N` , no commentary.
3.65

Could you please provide reported protein stability index for `H13M` ? Thanks!
2.94

Output measured protein stability index for this item: `R1E`
3.29

Give the reported value of protein stability index for this record: `Y9I`
3.03

Annotate the variant `Q3M` with its measured protein stability index.
2.82

Return protein stability index for the following variant: `Y9V`
3.91

Give protein stability index for the following variant: `H13F`
2.82

Identify protein stability index associated with the variant `L16R`
3.84

Report measured protein stability index; entry is `N7P`
4.17

Determine from records and report protein stability index for `L16P`
3.92

Identify measured protein stability index associated with `K18M`
2.6

Identify measured protein stability index corresponding to `K11A`
3.14
